Source of measurements: ChEMBL document CHEMBL1201862

System: NCI-H460
test.protocol: NCI tumour cell line growth inhibition, 48 h
Calls of active or inactive are those of the source. No stated cut-off is given here; in the data, active = GI50 up to about 1.1 µM and inactive = higher.

[
  {
    "compound": "C1=CC2(C=CC13O[C@H](C1CCCCC1)[C@@H](C1CCCCC1)O3)O[C@H](C1CCCCC1)[C@@H](C1CCCCC1)O2",
    "GI50": "> 50 µM (inactive)"
  },
  {
    "compound": "CO[C@@]1(c2ccccc2)O[C@H]2OCCC2[C@H]1c1ccc(Cl)cc1 (stereo partly drawn)",
    "GI50": "23.2 µM (inactive)"
  },
  {
    "compound": "COC(=O)[C@@H]1CSC(=S)N1C(=O)C[C@H]1CC=CC[C@H]1CC(=O)Sc1ccccc1",
    "GI50": "17.7 µM (inactive)"
  }
]

----------
Readings of GI50 for the listed compounds
System: UO-31
test.protocol: NCI tumour cell line growth inhibition, 48 h
Active and inactive are the calls of the source. No stated cut-off is given here; in the data, active = GI50 up to about 1.1 µM and inactive = higher.

[
  {
    "input.smiles": "O=[N+]([O-])c1cc([N+](=O)[O-])c(Nn2c3ccccc3c3ccccc32)c([N+](=O)[O-])c1",
    "GI50": "2.07 µM (inactive)"
  },
  {
    "input.smiles": "N#CCCN(CCC#N)c1ccc(C(/N=N/c2ccccc2)=N\\c2ccccc2)cc1",
    "GI50": "> 100 µM (inactive)"
  },
  {
    "input.smiles": "C[C@]12CCC(=O)[C@@H](CCC3=CC(=O)C=CC3=O)[C@@H]1CCC2=O",
    "GI50": "14.3 µM (inactive)"
  },
  {
    "input.smiles": "N#Cc1c(C#N)c(-c2ccco2)n(-c2ccccc2)c1N",
    "GI50": "> 100 µM (inactive)"
  },
  {
    "input.smiles": "O=C1NC(=O)C(=Cc2c3ccccc3cc3ccccc23)C(=O)N1",
    "GI50": "> 100 µM (inactive)"
  }
]

----------
Readings of GI50 for the listed molecules
Tested on: HCT-116
test.protocol: NCI tumour cell line growth inhibition, 48 h
Calls of active or inactive are those of the source. Cut-off read from the data, not from the text of the source: active = GI50 up to about 1.1 µM and inactive = higher.

[
  {
    "molecule": "CC(C)OC(=O)[C@@H]1OC(C)(C)O[C@H]1C(=O)OC(C)C",
    "GI50": "> 100 µM (inactive)"
  },
  {
    "molecule": "COC(=O)C1CC(=O)CCC1c1ccccc1 (centres undefined)",
    "GI50": "> 100 µM (inactive)"
  },
  {
    "molecule": "O=C1NC(=O)C(C(=O)C(=O)Nc2cccc(C(F)(F)F)c2)C(=O)N1",
    "GI50": "> 100 µM (inactive)"
  },
  {
    "molecule": "COc1cccc(C2c3cc4c(cc3OC3COC(=O)C32)OCO4)c1OC (centres undefined)",
    "GI50": "20.2 µM (inactive)"
  }
]

----------
Test system: SF-539
test.protocol: NCI tumour cell line growth inhibition, 48 h
Calls of active or inactive are those of the source. No stated cut-off is given here; in the data, active = GI50 up to about 1.1 µM and inactive = higher.
Readings of GI50 for the listed molecules

[
  {
    "molecule": "CCCC/N=C(/c1ccccc1)N1CCOCC1",
    "test.target": "SF-539",
    "GI50": "> 100 µM (inactive)"
  },
  {
    "molecule": "c1ccc(CSC(SCc2ccccc2)c2cccc3ccccc23)cc1",
    "test.target": "SF-539",
    "GI50": "> 10 µM (inactive)"
  },
  {
    "molecule": "Cc1c2ccnc(C(N)=O)c2c(C)c2c1[nH]c1ccccc12",
    "test.target": "SF-539",
    "GI50": "6.76 µM (inactive)"
  },
  {
    "molecule": "C=CCc1cc(OC)c(O)c(C(=O)/C=C/c2ccc(OC)c(OC)c2)c1",
    "test.target": "SF-539",
    "GI50": "19.1 µM (inactive)"
  },
  {
    "molecule": "COc1ccc(C2COc3cc(O)c(O)cc3C2)cc1 (stereo unspecified)",
    "test.target": "SF-539",
    "GI50": "30.1 µM (inactive)"
  },
  {
    "molecule": "Cc1nc2ccccc2c(=O)n1NC(=O)Cc1ccccc1",
    "test.target": "SF-539",
    "GI50": "> 100 µM (inactive)"
  },
  {
    "molecule": "COC(=O)[C@@H]1COC(=O)N1",
    "test.target": "SF-539",
    "GI50": "> 100 µM (inactive)"
  },
  {
    "molecule": "Cc1cc(-c2nc3ccc(F)cc3s2)ccc1N",
    "test.target": "SF-539",
    "GI50": "43.5 µM (inactive)"
  },
  {
    "molecule": "CC1(C)CCC(=O)NC1CC(=O)CC1NC(=O)CCC1(C)C (stereo unspecified)",
    "test.target": "SF-539",
    "GI50": "> 100 µM (inactive)"
  },
  {
    "molecule": "O=C(/C=C/c1ccc(O)c(O)c1)NC(COC(=O)/C=C/c1ccc(O)c(O)c1)C(=O)O (stereo unspecified)",
    "test.target": "SF-539",
    "GI50": "> 100 µM (inactive)"
  },
  {
    "molecule": "CCn1c(=O)c2c3ccc(O)cc3oc2c2ccc(O)cc21",
    "test.target": "SF-539",
    "GI50": "34.9 µM (inactive)"
  },
  {
    "molecule": "CC1=CC(=C(c2ccc(N)c(C)c2)c2ccc(N)c(C)c2)C=CC1=N",
    "test.target": "SF-539",
    "GI50": "2.67 µM (inactive)"
  },
  {
    "molecule": "CC(C)=C=CC(C)(C)NS(=O)(=O)NC(C)(C)C=C=C(C)C",
    "test.target": "SF-539",
    "GI50": "> 100 µM (inactive)"
  },
  {
    "molecule": "CC(=O)NC1C(OCc2ccccc2)OC(CO)C(O)C1OC(C)C(=O)NC(C(=O)NC(CCC(=O)NCCCC(=O)Nc1ccc2c(c1)CN1C(=O)c3ccccc3C1=N2)C(N)=O)C(C)C (stereo unspecified)",
    "test.target": "SF-539",
    "GI50": "> 100 µM (inactive)"
  },
  {
    "molecule": "CCC12C=CCN3CCC4(c5cc(C(c6ccc(OC)cc6)C6Cc7ccccc7N6)c(OC)cc5N(C)C4C(O)(C(=O)OC)C1O)C32 (stereo unspecified)",
    "test.target": "SF-539",
    "GI50": "21 µM (inactive)"
  },
  {
    "molecule": "CC1(OCc2ccccc2)C(=O)N2C1NCC2(C)C (stereo unspecified)",
    "test.target": "SF-539",
    "GI50": "> 100 µM (inactive)"
  },
  {
    "molecule": "COc1nc2[nH]ccc2c(=O)[nH]1",
    "test.target": "SF-539",
    "GI50": "> 100 µM (inactive)"
  },
  {
    "molecule": "COc1ccc(C2c3cc4c(cc3OC(N3CCOCC3)C2C)OCO4)c(OC)c1 (stereo unspecified)",
    "test.target": "SF-539",
    "GI50": "3.05 µM (inactive)"
  },
  {
    "molecule": "O=C(O)C(CCc1ccccc1)N1C(=O)c2ccccc2C1=O (stereo unspecified)",
    "test.target": "SF-539",
    "GI50": "> 100 µM (inactive)"
  },
  {
    "molecule": "COc1cc(/C=C2\\C(=O)N(c3ccc(NC(C)=O)cc3)C(c3ccccc3)S2(=O)=O)cc(OC)c1OC (stereo unspecified)",
    "test.target": "SF-539",
    "GI50": "> 100 µM (inactive)"
  },
  {
    "molecule": "CN1CC(C(=O)C2C(=O)c3ccccc3C2=O)C(=O)C(=O)C(C(=O)C2C(=O)c3ccccc3C2=O)C1 (stereo unspecified)",
    "test.target": "SF-539",
    "GI50": "> 100 µM (inactive)"
  },
  {
    "molecule": "COc1nc(NC2OC(COC(C)=O)C(OC(C)=O)C(OC(C)=O)C2OC(C)=O)c(/N=C/C=N/c2c(NC3OC(COC(C)=O)C(OC(C)=O)C(OC(C)=O)C3OC(C)=O)nc(OC)[nH]c2=O)c(=O)[nH]1 (stereo unspecified)",
    "test.target": "SF-539",
    "GI50": "> 100 µM (inactive)"
  },
  {
    "molecule": "O=C1NC(=O)C(c2c[nH]c3ccccc23)=C1c1cn(C(c2ccccc2)(c2ccccc2)c2ccccc2)cn1",
    "test.target": "SF-539",
    "GI50": "15.4 µM (inactive)"
  },
  {
    "molecule": "CN(C(=O)c1ccco1)C(=S)N1CCN(c2ccccc2)CC1",
    "test.target": "SF-539",
    "GI50": "> 100 µM (inactive)"
  },
  {
    "molecule": "C[C@]12CCC(=O)C=C1CC[C@@H]1[C@@H]2CC[C@]2(C)C(=O)/C(=C/c3ccc([N+](=O)[O-])cc3)C[C@@H]12",
    "test.target": "SF-539",
    "GI50": "79.3 µM (inactive)"
  },
  {
    "molecule": "Cc1c2ncccc2c(C)c2c1[nH]c1ccc(O)cc12",
    "test.target": "SF-539",
    "GI50": "6.55 µM (inactive)"
  }
]
